- assay.protocol: PSAC antagonists in infected red cells, primary screen, cell-based, P. falciparum Indochina, OD700, 2 h (AID 1155);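 also: lysis reports solute entry through the parasite surface anion channel PSAC; channel blockers reduce lysis of infected cells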
- study.conditions: P. falciparum Indochina infected erythrocytes, osmotic lysis OD700, called active from +8 up or from −8 down
Calls of active or inactive are those of the source.
Please state which outcome applies, choosing from true for active, false for inactive

Ask: Lab log entry: CC[C@H]1C2=C3C(CC[C@H]4C(OC)OC[C@](C)([C@@H]34)N(C(=O)OC(C)(C)C)C2)C(CO)C1CO (some centres not stated) — outcome as called in the assay?
Result: false

Ask: I'd appreciate the recorded outcome for CC(=O)Nc1ccc([C@H]2[C@H](C)CC[C@H]3C(=O)N4[C@@H](CC[C@@H](C)[C@@H]4c4ccc(NC(C)=O)cc4)C(=O)N32)cc1 from this test.
Result: false

Ask: Dear colleague, could you share the recorded outcome for C=CCC(OC(C)=O)[C@@H]1[C@@H](N(Cc2ccc(-c3cccc(C(F)(F)F)c3)o2)C(=O)Cc2ccc(F)cc2)c2cc(OCCCO)ccc2N1C(=O)c1ccc(-c2ccccc2)cc1 (some centres not stated) when you have a moment?
Result: false

Ask: What is the recorded call for this compound in the test? CO[C@H]1COC(=O)CC=C[C@H](C)[C@@H](OC)COC(=O)[C@H](Cc2ccccc2)NC(=O)CC=C[C@@H]1C
Result: false

Ask: For this compound, state the assay outcome: COc1ccc(CCNC(=O)[C@@]2(c3ccc([N+](=O)[O-])cc3)CC(=O)N(C(C)C)[C@@H]2c2ccc(CO)cc2)cc1
Result: false

Ask: // outcome(item) with item = COC(=O)[C@@]1(Cc2ccccc2)[C@H]2c3cc(C(=O)N4CCCC4)n(CCN4CNCC4=O)c3C[C@H]2CN1C(=O)c1ccccc1
Result: false

Ask: Tell me the assay call for Cc1ccc([C@@H]2CC=C(C(=O)O)[C@H](c3ccccc3)N2S(=O)(=O)c2ccc(C)cc2)cc1 please.
Result: false

Ask: Answer briefly: the call reported for C[N+](C)(C)CCCC[C@@H]1NC(=O)[C@H]2C[C@@H](C(=O)NCc3ccc(F)cc3)[C@@H](c3cccc(OCCO)c3)N2C1=O in this assay.
Result: false

Ask: Given CC(C)C[C@@H]1NC(=O)[C@H](CC(C)C)NC(=O)[C@@]23C(=O)N[C@@H](Cc4ccccc4)C2[C@H](C)[C@@]2(C)O[C@H]2C3/C=C/CC/C=C/CNC1=O (some centres not stated) , state the outcome it received in this test.
Result: false

Ask: Give the logged outcome of this assay for the following compound: C[C@H]1NC(=O)[C@@H](C)NC(=O)[C@@]23C(=O)N[C@@H](Cc4ccccc4)C2[C@H](C)[C@@]2(C)O[C@H]2C3/C=C/C/C=C\CNC1=O (some centres not stated)
Result: false

Ask: Would you mind telling me which call this test gave CO[C@@H]1COC(=O)[C@@H]2CCCN2C(=O)CC=C[C@@H](C)[C@H](OC)COC(=O)[C@@H]2CCCN2C(=O)CC=C[C@H]1C ?
Result: false

Ask: For CCN1C(C)=C(C(=O)OC)[C@@H](c2ccccc2)N2C(=O)[C@@]3(C(=O)OC)O[C@@]12[C@@H]1C(=O)CCC[C@@H]13 , what call appears in the results of this test?
Result: false

Ask: For COCCOC(=O)N1C(=O)[C@@]2(c3cc(C#CCNC(N)=O)ccc31)[C@H](c1ccc(OCCO)cc1)N1[C@H](c3ccccc3)[C@H](c3ccccc3)OC(=O)[C@H]1[C@@H]2C(=O)N1CCCCCCC1 , which call appears in the assay record?
Result: false

Ask: Please indicate how the test categorized O=C1c2ccccc2[C@@]2(Cc3ccccc3N(CC(F)(F)F)C2=O)[C@H](c2ccc(CO)cc2)N1C1CCCCC1 .
Result: false

Ask: # fetch the recorded call for CO[C@H]1O[C@H](CO)[C@@H](OC(=O)Nc2ccc(Oc3ccccc3)cc2)[C@H](OC(=O)Nc2ccccc2-c2ccccc2)[C@H]1OC(=O)Nc1ccccc1-c1ccccc1 here
Result: false

Ask: Give the logged outcome of this assay for the following compound: C=CCNC(=O)[C@H]1[C@@H]2C(=O)O[C@@H](c3ccccc3)[C@@H](c3ccccc3)N2[C@@H](c2ccc(O)cc2)[C@]12C(=O)Nc1ccc(C#CCNC(N)=O)cc12
Result: false

Ask: What call does the record list for C=CCC1=C[C@H]2[C@H]([C@@H]3C=C[C@]2(CC=C)C(=O)[C@]32CO2)[C@@]2(CO2)C1=O ?
Result: false

Ask: Assay result, entry C=CCNC(=O)[C@H]1[C@@H]2C(=O)O[C@@H](c3ccccc3)[C@@H](c3ccccc3)N2[C@@H](c2ccccc2OCCO)[C@]12C(=O)N(C(=O)OCCOC)c1ccc(C#CCNC(N)=O)cc12 — outcome?
Result: false

Ask: How did this test come out for O=C1O[C@@H](c2ccccc2)[C@@H](c2ccccc2)N2[C@@H](c3ccccc3OCCO)[C@]3(C(=O)Nc4ccc(C#CC5=CCCCC5)cc43)[C@@H](C(=O)O)[C@H]12 ?
Result: false

Ask: Could you please tell me the result logged for C[C@]1(C(=O)NCc2ccccc2)c2ccccc2C(=O)N(Cc2cc(C(F)(F)F)cc(C(F)(F)F)c2)[C@H]1c1ccc(CO)cc1 in this assay?
Result: false

Ask: Hi team, can someone confirm the assay call for Cc1ccc(S(=O)(=O)N[C@H]2COC(=O)CC=C[C@H](C)COC(=O)N[C@@H](C)C(=O)CC=C[C@@H]2C)cc1 ?
Result: false

Ask: Give the logged outcome of this assay for the following compound: [N-]=[N+]=NCc1ccccc1C[C@@]1(C(=O)O)N=C(c2ccc(OCCCO)cc2)O[C@@H]1c1ccccc1N=[N+]=[N-]
Result: true

Ask: Tell me the recorded outcome of this test for CN(C)CCCC[C@@H]1NC(=O)[C@@H]2C[C@H](C(=O)NCCCCCNC(=O)CS)[C@H](c3ccc(O)cc3)N2C1=O .
Result: false

Ask: What was the test verdict on Cc1ccc(S[C@]2(C(=O)O)CC(=O)N(Cc3ccccc3)[C@@H]2c2ccc(CO)cc2)cc1 ?
Result: false

Ask: Could you kindly confirm the outcome this assay logged for N#Cc1ccc(NN2C(C(O)CCc3ccccc3)C=CC3C(=O)N(c4ccccc4)C(=O)C32)cc1 (configuration not stated) ?
Result: false

Ask: Kindly provide the recorded test outcome for the following compound: COC(=O)C1=C(C)N(Cc2ccccc2)c2c(C(=O)OC)c(C(=O)OC)c(C(=O)OC)c(=O)n2[C@@H]1c1ccccc1
Result: false

Ask: Write down the call the test reported for this compound. Item: CN1C(=O)C2C=CC(C(O)C3CC=CCC3)N(Nc3ccccc3)C2C1=O (configuration not stated)
Result: false

Recorded values, source PubChem BioAssay.
